System: Drosophila S2 cl14 SmoIP sensor cells
EXPERIMENTAL_DETAILS: normalized SmoIP GFP fluorescence (untreated unstimulated = 0%, untreated Hh-stimulated = 100%); higher = more Smo activation sensor fluorescence
APPLIED_CONDITIONS: stimulation: Hh conditioned medium (+Hh); compound concentration: 2 uM; 24 h
METRIC: normalized SmoIP GFP fluorescence (%)

1) Cc1cncc(CN2CCC(=C3c4ccc(Cl)cc4CCc4cccnc43)CC2)c1 [rupatadine-fumarate]
112
2) CCc1ccc(/C=C2/SC(=S)NC2=O)cc1
105
3) O=c1oc2cc(O)ccc2s1
169
4) CN(C)Cc1c(C(=O)NCCOc2ccc(C(=O)NO)cc2)oc2ccccc12
211
5) COc1cccc2cc(-c3nc([C@H]4CC[C@H](C(=O)O)CC4)n4ncnc(N)c34)[nH]c12
54.2

====

Tested on: Drosophila S2 cl14 SmoIP sensor cells
EXPERIMENTAL_DETAILS: normalized SmoIP GFP fluorescence (untreated unstimulated = 0%, untreated Hh-stimulated = 100%); higher = more Smo activation sensor fluorescence
APPLIED_CONDITIONS: stimulation: Hh conditioned medium (+Hh); compound concentration: 2 uM; 24 h
METRIC: normalized SmoIP GFP fluorescence (%)

1) CN(C)c1ccc(-c2nc3ncc(Cl)c(N4CCN(CC(=O)Nc5nccs5)CC4)c3[nH]2)cc1
125
2) COc1ccc2c(c1)c(CC(=O)N1CCOCC1)c(C)n2C(=O)c1ccc(Cl)cc1
108
3) Cn1cc(-c2ccc3nnc(Sc4ccc5ncccc5c4)n3n2)cn1
96.1
4) CC(=O)Nc1ccc(NC(=S)NC(=O)c2ccc(C(C)(C)C)cc2)cc1
97
5) O=C1NC(=O)C(=Cc2ccc(-c3ccc(F)cc3)o2)S1 (stereo in doubt)
102

====

Reported normalized SmoIP GFP fluorescence by item:
Test system: Drosophila S2 cl14 SmoIP sensor cells;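 further: flow cytometry read-out as median GFP intensity of gated cells, compounds added 30 min before Hh-conditioned or mock medium, mock-treated cells serving as unstimulated baseline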
EXPERIMENTAL_DETAILS: normalized SmoIP GFP fluorescence (untreated unstimulated = 0%, untreated Hh-stimulated = 100%); higher = more Smo activation sensor fluorescence
APPLIED_CONDITIONS: stimulation: mock conditioned medium (-Hh); compound concentration: 2 uM; 24 h
Where a name gives a salt, the structure may show the parent alone.
METRIC: normalized SmoIP GFP fluorescence (%)

1. Cc1[nH]nc2ccc(-c3cncc(OC[C@@H](N)Cc4ccccc4)c3)cc12
8.54
2. Cn1cc(/C=C2\C(=O)Nc3cccnc32)c2ccccc21
60.2
3. CCN(CC)CC#CCOC(=O)C(O)(c1ccccc1)C1CCCCC1 (stereo not given) [oxybutynin-chloride]
-1.12
4. CNC(=O)[C@H](Cc1ccccc1)NC(=O)[C@H](CC(C)C)[C@H](CSc1cccs1)C(=O)NO
-2.48
5. Clc1ccc2nsnc2c1NC1=NCCN1 [Tizanidine-hydrochloride]
-5.76
6. NC(=O)c1ccc(I)c([N+](=O)[O-])c1
-5.22
7. O=C(Nc1cccnc1)N1CCC(Cc2cccc(Oc3ccc(C(F)(F)F)cn3)c2)CC1
-0.297
8. O=C1NC(=O)C(c2ccccc2[N+](=O)[O-])=C1Nc1ccc(O)c(Cl)c1
-16.1
9. CC(C)(C)C#Cc1cc(N(C(=O)[C@H]2CC[C@H](C)CC2)[C@H]2CC[C@H](O)CC2)c(C(=O)O)s1
10.4
10. CNCCC(Oc1ccc(C(F)(F)F)cc1)c1ccccc1 (stereo not given) [Fluoxetine-hydrochloride]
1.89
11. CC(C)C[C@H](NC(=O)CNC(=O)c1cc(Cl)ccc1Cl)B(O)O
26
12. Cc1nnc(C(=O)NC(C)(C)c2nc(C(=O)NCc3ccc(F)cc3)c(O)c(=O)n2C)o1
-11.7
13. CC(C(O)c1ccc(O)cc1)N1CCC(Cc2ccccc2)CC1 (stereo not given) [ifenprodil-tartrate]
-5.15
14. Cn1c(N2CCCCS2(=O)=O)nc(C(=O)NCc2ccc(F)cc2)c(O)c1=O
-2.42
15. Oc1cccc(-c2nc(N3CCOCC3)c3oc4ncccc4c3n2)c1
4.26
16. COCCCC/C(=N\OCCN)c1ccc(C(F)(F)F)cc1 [Fluvoxamine-maleate]
11
17. Cc1ccccc1C(=O)Nc1ccc(C(=O)N2CCCC(O)c3cc(Cl)ccc32)c(C)c1 (stereo not given)
-6.61
18. CS(=O)(=O)c1ccc(C(=O)Nc2ccc(Cl)c(-c3ccccn3)c2)c(Cl)c1
36.8
19. CCOc1ccc(Cc2cc([C@@H]3O[C@H](CO)[C@@H](O)[C@H](O)[C@H]3O)ccc2Cl)cc1
1.57
20. CCC(C)(Oc1ccc(C2(c3ccc(OC(C)(CC)C(=O)O)cc3)CCCCC2)cc1)C(=O)O (stereo not given) [clinofibrate]
-14.5
21. COC(=O)N[C@H](C(=O)N1CCC[C@H]1c1ncc(-c2ccc(-c3ccc(-c4cnc([C@@H]5CCCN5C(=O)[C@@H](NC(=O)OC)C(C)C)[nH]4)cc3)cc2)[nH]1)C(C)C
7.39
22. CNC(=O)c1nn(C)c2c1C(C)(C)Cc1cnc(Nc3ccc(N4CCN(C)CC4)cc3)nc1-2
-11.7
23. CCN1CCN(Cc2ccc(Nc3ncc(F)c(-c4cc(F)c5nc(C)n(C(C)C)c5c4)n3)nc2)CC1
50.1
24. CCS(=O)(=O)Nc1ccc2c(c1)/C(=C(/Nc1ccc(CN3CCCCC3)cc1)c1ccccc1)C(=O)N2
12.7
25. O=c1n(CCCN2CCN(c3cccc(Cl)c3)CC2)nc2ccccn12 [trazodone-hydrochloride-desyrel]
-8.23
26. CC(C)CC(=O)Nc1n[nH]c2c1CN(C(=O)C1CCN(C)CC1)C2(C)C
20.1
27. O=c1sn(-c2cccc3ccccc23)c(=O)n1Cc1ccccc1
-0.264
28. CCCCOc1cc(C(=O)NCCN(CC)CC)c2ccccc2n1 [dibucaine-cinchocaine-hcl]
0.361
29. CCNC(=O)c1[nH]nc(-c2cc(Cl)c(O)cc2O)c1-c1ccc(OC)cc1
23.1
30. COC1=C2C[C@@H](C)C[C@H](OC)[C@H](O)[C@@H](C)/C=C(\C)[C@H](OC(N)=O)[C@@H](OC)/C=C\C=C(/C)C(=O)NC(=CC1=O)C2=O
46.6
31. O=C(Nc1ccc(S(=O)(=O)Nc2ccccc2Cl)c(Cl)c1)c1ccccn1
3.4
32. COc1ccccc1N1CCN(CCN(C(=O)C2CCCCC2)c2ccccn2)CC1
7.01
33. COc1ccccc1N1CCN(CCCNc2cc(=O)n(C)c(=O)n2C)CC1 [urapidil-hydrochloride]
-7.96
34. CCN(CC)CCNC(=O)c1c(C)[nH]c(/C=C2\C(=O)Nc3ccc(F)cc32)c1C [Sunitinib-Malate-(Sutent)]
90.8
35. N#CCNC(=O)c1ccc(-c2ccnc(Nc3ccc(N4CCOCC4)cc3)n2)cc1
53.3
